Hey, just so you know, these numbers are from ChEMBL document CHEMBL3885881.

# Organism: Rattus norvegicus
# assay.remarks: DrugMatrix - Regimen: Daily Repeat
# Type: toxicity, organism-based, Sprague-Dawley
# Set-up: regimen Daily Repeat, gender Male, age 6-8 weeks
# condition.info: in vivo, po, 0 mg/kg, 72 h, tissue Plasma, route oral GAVAGE, dose level Control, time 3 day, […]
reported.endpoint: CREATININE (mg/dL)
Write down the numeric answer in mg/dL and omit the unit.

• CC(C)(Oc1ccc(CCNC(=O)c2ccc(Cl)cc2)cc1)C(=O)O [BEZAFIBRATE] = 0.18
• Oc1c(Cl)cc(Cl)cc1Sc1cc(Cl)cc(Cl)c1O [BITHIONOL] = 0.19
• C=CCN [ALLYLAMINE] = 0.5
• COC1=CC(=O)C[C@@H](C)[C@]12Oc1c(Cl)c(OC)cc(OC)c1C2=O [GRISEOFULVIN] = 0.21
• CCCC[C@@H](CC)COC(=O)c1ccccc1C(=O)OC[C@@H](CC)CCCC [BIS(2-ETHYLHEXYL)PHTHALATE] = 0.16

CCCCCCCCCc1ccc(O)cc1 [4-NONYLPHENOL] has a reported CREATININE of 0.17

Form field CREATININE, entry CSc1ccc2c(c1)N(CCC1CCCCN1C)c1ccccc1S2 (stereo not given) [THIORIDAZINE] : 0.2

The recorded CREATININE for entry CC(C)n1c(/C=C/C(O)CC(O)CC(=O)O)c(-c2ccc(F)cc2)c2ccccc21 (stereo not given) [FLUVASTATIN] equals 0.19

COc1ccc2c(c1)c(CC(=O)OCC(=O)O)c(C)n2C(=O)c1ccc(Cl)cc1 [ACEMETACIN] has a reported CREATININE of 0.2

So, c1ccc2[nH]c(-c3cscn3)nc2c1 [THIABENDAZOLE] ? Its CREATININE was 0.16

* * *

# Species: Rattus norvegicus
# assay.remarks: DrugMatrix - Regimen: Daily Repeat
# Assay type: toxicity, organism-based, Sprague-Dawley
# Parameters: regimen Daily Repeat, gender Male, age 6-8 weeks
# condition.info: in vivo, po, 2000 mg/kg, 72 h, tissue Blood, route oral GAVAGE, dose level High, time 3 day, vehicle .5 % CMC
reported.endpoint: MEAN CORPUSCULAR VOLUME (fL)
The figure you give is taken to be in fL; do not add the unit.

* NCC(=O)O | 59.23
* CC(=O)O[C@]1(C(C)=O)CC[C@H]2[C@@H]3C=C(Cl)C4=CC(=O)CC[C@]4(C)[C@H]3CC[C@@]21C [CHLORMADINONE ACETATE] | 64.67
* NCCCC[C@H](N[C@@H](CCc1ccccc1)C(=O)O)C(=O)N1CCC[C@H]1C(=O)O [LISINOPRIL ANHYDROUS] | 59.63

Record `CC(C)[C@H](N)C(=O)OCCOCn1cnc2c(=O)[nH]c(N)nc21` , field MEAN CORPUSCULAR VOLUME: 63.07

* * *

Readings of CARBON DIOXIDE for the listed compounds
# Species: Rattus norvegicus
# assay.remarks: DrugMatrix - Regimen: Daily Repeat
# Type: toxicity, organism-based, Sprague-Dawley
# Design: regimen Daily Repeat, gender Male, age 6-8 weeks
# condition.info: in vivo, iv, 0 mg/kg, 120 h, tissue Plasma, dose level Control, time 5 day, vehicle 100 % SALINE
Please state the figure in mmol/L; there is no need to write the unit.

Here is how some compounds turned out for CARBON DIOXIDE.
* NCC[C@H](O)C(=O)N[C@@H]1C[C@H](N)[C@@H](O[C@H]2O[C@H](CN)[C@@H](O)[C@H](O)[C@H]2O)[C@H](O)[C@H]1O[C@H]1O[C@H](CO)[C@@H](O)[C@H](N)[C@H]1O [AMIKACIN] | 32.33
* CN(N=O)C(=O)N[C@@H](C=O)[C@@H](O)[C@H](O)[C@H](O)CO [STREPTOZOCIN] | 25.67
* CC1(C)S[C@@H]2[C@H](NC(=O)[C@H](NC(=O)N3CCNC3=O)c3ccccc3)C(=O)N2[C@H]1C(=O)O [AZLOCILLIN] | 27

Okay, next one:
Notebook: CC[C@@]1(O)C(=O)OCc2c1cc1n(c2=O)Cc2cc3ccccc3nc2-1 [CAMPTOTHECIN] , CARBON DIOXIDE read as 30.67
